Procedure text: Enzyme screens for resolution of diastereomeric mixture CHDP(MEMC)/THLP(MEMC) (Example 9)
Assay type: biochemical
Measurement conditions: 0.050M each isomer; 0.100M potassium phosphate pH 7.0; 5 h or 24 h; 5.0 to 50 mg/mL enzyme; 25° C.
Measured attribute: conv. (percent conversion of the diastereomeric mixture)

{"columns": ["Molecule", "Observed value"],
 "data": [
  ["protease, trypsin bovine pancreas: commercial trypsin, source bovine pancreas (protein, UniProt P00760 24-246, looked up) Serine protease 1: IVGGYTCGANTVPYQVSLNSGYHFCGGSLINSQWVVSAAHCYKSGIQVRLGEDNINVVEGNEQFISASKSIVHPSYNSNTLNNDIMLIKLKSAASLNSRVASISLPTSCASAGTQCLISGWGNTKSSGTSYPDVLKCLKAPILSDSSCKSAYPGQITSNMFCAGYLEGGKDSCQGDSGGPVVCSGKLQGIVSWGSGCAQKNKPGVYTKVCNYVSWIKQTIASN", "0%"],
  ["protease, trypsin porcine pancreas: commercial trypsin, source porcine pancreas (protein, UniProt P00761 9-231, looked up) Trypsin: IVGGYTCAANSIPYQVSLNSGSHFCGGSLINSQWVVSAAHCYKSRIQVRLGEHNIDVLEGNEQFINAAKIITHPNFNGNTLDNDIMLIKLSSPATLNSRVATVSLPRSCAAAGTECLISGWGNTKSSGSSYPSLLQCLKAPVLSDSSCKSSYPGQITGNMICVGFLEGGKDSCQGDSGGPVVCNGQLQGIVSWGYGCAQKNKPGVYTKVCNYVNWIQQTIAAN", "0%"],
  ["protease, type VIII: commercial enzyme preparation, source Bacillus licheniformis (protein, UniProt P00780 106-379, looked up) Subtilisin Carlsberg: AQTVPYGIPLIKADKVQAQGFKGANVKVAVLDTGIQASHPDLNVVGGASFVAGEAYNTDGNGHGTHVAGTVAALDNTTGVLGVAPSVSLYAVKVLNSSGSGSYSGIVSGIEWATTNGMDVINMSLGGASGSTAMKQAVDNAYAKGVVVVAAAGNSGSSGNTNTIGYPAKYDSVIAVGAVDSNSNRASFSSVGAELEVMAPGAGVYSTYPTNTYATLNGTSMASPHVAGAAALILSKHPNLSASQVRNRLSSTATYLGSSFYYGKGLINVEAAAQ", "16%"],
  ["protease, type XXVII: commercial enzyme preparation, (Nagarase) (protein, UniProt P00782 108-382, looked up) Subtilisin BPN': AQSVPYGVSQIKAPALHSQGYTGSNVKVAVIDSGIDSSHPDLKVAGGASMVPSETNPFQDNNSHGTHVAGTVAALNNSIGVLGVAPSASLYAVKVLGADGSGQYSWIINGIEWAIANNMDVINMSLGGPSGSAALKAAVDKAVASGVVVVAAAGNEGTSGSSSTVGYPGKYPSVIAVGAVDSSNQRASFSSVGPELDVMAPGVSIQSTLPGNKYGAYNGTSMASPHVAGAAALILSKHPNWTNTQVRSSLENTTTKLGDSFYYGKGLINVQAAAQ", "2%"],
  ["protease (Chirazyme P1): commercial enzyme preparation, source Bacillus licheniformis (protein, UniProt P00780 106-379, looked up) Subtilisin Carlsberg: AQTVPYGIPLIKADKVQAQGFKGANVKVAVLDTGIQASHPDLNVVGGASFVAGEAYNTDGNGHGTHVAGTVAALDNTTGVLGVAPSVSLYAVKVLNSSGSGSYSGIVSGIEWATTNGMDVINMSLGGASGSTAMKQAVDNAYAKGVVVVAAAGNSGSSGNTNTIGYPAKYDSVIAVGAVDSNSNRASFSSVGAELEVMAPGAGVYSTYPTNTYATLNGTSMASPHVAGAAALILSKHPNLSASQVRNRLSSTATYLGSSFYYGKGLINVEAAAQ", "28%"],
  ["protease, type XXIV: commercial enzyme preparation, source bacterial (subtil. Carlsberg) (protein, UniProt P00780 106-379, looked up) Subtilisin Carlsberg: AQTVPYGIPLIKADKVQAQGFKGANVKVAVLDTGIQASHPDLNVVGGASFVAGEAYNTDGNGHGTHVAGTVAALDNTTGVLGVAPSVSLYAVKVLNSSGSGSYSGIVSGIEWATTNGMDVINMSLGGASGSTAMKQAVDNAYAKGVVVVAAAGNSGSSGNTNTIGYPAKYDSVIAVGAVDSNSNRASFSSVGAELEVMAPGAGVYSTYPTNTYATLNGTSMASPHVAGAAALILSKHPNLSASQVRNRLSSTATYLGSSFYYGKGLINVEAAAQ", "16%"],
  ["protease, type X: commercial enzyme preparation, source B. thermoproteoliticus rokko (protein, UniProt P00800 233-548, looked up) Thermolysin: ITGTSTVGVGRGVLGDQKNINTTYSTYYYLQDNTRGNGIFTYDAKYRTTLPGSLWADADNQFFASYDAPAVDAHYYAGVTYDYYKNVHNRLSYDGNNAAIRSSVHYSQGYNNAFWNGSQMVYGDGDGQTFIPLSGGIDVVAHELTHAVTDYTAGLIYQNESGAINEAISDIFGTLVEFYANKNPDWEIGEDVYTPGISGDSLRSMSDPAKYGDPDHYSKRYTGTQDNGGVHINSGIINKAAYLISQGGTHYGVSVVGIGRDKLGKIFYRALTQYLTPTSNFSQLRAAAVQSATDLYGSTSQEVASVKQAFDAVGVK", "0%"]
]}

Source listed as patent US5928933A.
